# tested target: human NRP1 (human, UniProt O14786)
# experiment summary: competition phage ELISA
parameter measured: IC50 (nM)
Quick note: give the figure in nM, leave out the unit.

1. YW107.4.53 (antibody, V domains shown) VH: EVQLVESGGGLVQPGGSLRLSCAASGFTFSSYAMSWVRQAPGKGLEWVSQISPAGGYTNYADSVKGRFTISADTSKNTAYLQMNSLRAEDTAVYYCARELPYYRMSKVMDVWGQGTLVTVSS VL: DIQMTQSPSSLSASVGDRVTITCRASQYISSYLAWYQQKPGKAPKLLIYGASRRESGVPSRFSGSGSGTDFTLTISSLQPEDFATYYCQQYLNSPLTFGQGTKVEIKR
0.3
2. YW107.4.33a (antibody, V domains shown) VH: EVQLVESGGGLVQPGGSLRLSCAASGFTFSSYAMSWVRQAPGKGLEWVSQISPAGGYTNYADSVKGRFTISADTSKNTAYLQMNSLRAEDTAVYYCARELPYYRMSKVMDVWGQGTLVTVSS VL: DIQMTQSPSSLSASVGDRVTITCRASQYISSYLAWYQQKPGKAPKLLIYGASRRASGVPSRFSGSGSGTDFTLTISSLQPEDFATYYCQQYIGSPITFGQGTKVEIKR
0.31
3. YW107.4.12 (antibody, V domains shown) VH: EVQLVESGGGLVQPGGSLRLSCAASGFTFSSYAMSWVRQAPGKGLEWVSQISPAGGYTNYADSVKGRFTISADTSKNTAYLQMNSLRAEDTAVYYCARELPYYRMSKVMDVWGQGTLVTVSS VL: DIQMTQSPSSLSASVGDRVTITCRASQYTHSYLAWYQQKPGKAPKLLIYGASSRASGVPSRFSGSGSGTDFTLTISSLQPEDFATYYCQQYYSSPITFGQGTKVEIKR
0.1

Could you tell me which IC50 is on file for YW107.4.52 (antibody, V domains shown) VH: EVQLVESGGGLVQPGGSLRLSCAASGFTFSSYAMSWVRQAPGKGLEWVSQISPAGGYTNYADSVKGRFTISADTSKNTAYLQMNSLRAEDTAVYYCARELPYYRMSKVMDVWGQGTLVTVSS VL: DIQMTQSPSSLSASVGDRVTITCRASQYFSSYLAWYQQKPGKAPKLLIYGASTLASGVPSRFSGSGSGTDFTLTISSLQPEDFATYYCQQYIRSPLTFGQGTKVEIKR ?
0.22
